Molecular target: human RXFP1 (Homo sapiens)
Sequence (Q9HBX9 whole entry): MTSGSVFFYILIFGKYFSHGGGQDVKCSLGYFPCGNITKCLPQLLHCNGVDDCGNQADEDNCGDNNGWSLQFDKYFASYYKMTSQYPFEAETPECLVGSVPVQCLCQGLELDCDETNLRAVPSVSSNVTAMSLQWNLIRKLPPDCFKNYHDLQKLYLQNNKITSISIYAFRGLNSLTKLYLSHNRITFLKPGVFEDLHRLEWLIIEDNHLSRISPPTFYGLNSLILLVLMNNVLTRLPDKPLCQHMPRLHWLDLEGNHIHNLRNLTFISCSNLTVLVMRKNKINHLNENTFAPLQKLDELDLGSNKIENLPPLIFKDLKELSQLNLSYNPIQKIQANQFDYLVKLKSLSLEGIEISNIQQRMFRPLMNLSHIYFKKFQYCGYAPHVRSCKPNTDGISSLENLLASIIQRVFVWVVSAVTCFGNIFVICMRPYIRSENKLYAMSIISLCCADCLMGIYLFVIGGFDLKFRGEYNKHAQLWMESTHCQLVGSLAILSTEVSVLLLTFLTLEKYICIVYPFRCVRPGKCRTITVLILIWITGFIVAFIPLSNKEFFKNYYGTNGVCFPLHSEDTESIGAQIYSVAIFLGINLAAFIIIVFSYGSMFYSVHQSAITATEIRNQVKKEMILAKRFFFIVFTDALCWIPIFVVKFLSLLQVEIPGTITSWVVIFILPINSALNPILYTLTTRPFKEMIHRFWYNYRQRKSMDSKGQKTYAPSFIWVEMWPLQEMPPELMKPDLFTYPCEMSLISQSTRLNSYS
Assay: human RXFP1 (hRXFP1) HEK293 cAMP assay (HTRF)
Conditions: HEK293 cells stably expressing human RXFP1, 30 min at room temperature
Measured Quantity: EC50 (nM)

Known results for molecules:
| Molecule | Unit Of Measurement | Measurement |
| --- | --- | --- |
| COc1cc2c(cc1C(=O)N[C@H]1[C@@H](C(=O)Nc3ccc(F)c(C(F)(F)F)c3)[C@H]3CC[C@@H]1/C3=C\C1CC1)CN(C(=O)OC(C)(C)C)CC2 | nM | 660 |
| COc1ncc(C2=NOC3CC(C(C)O)CC23)cc1C(=O)N[C@H]1[C@@H](C(=O)Nc2ccc(F)c(C(F)(F)F)c2)[C@H]2CC[C@@H]1/C2=C\C1CC1 (stereo partly drawn) [Example 110] | nM | 3.5 |
| O=C(O)c1cccc(C2=NOC(C(=O)N[C@@H]3C4CCC(/C4=C/C(F)(F)F)[C@@H]3C(=O)Nc3ccc(F)c(C(F)(F)F)c3)C2)c1 (stereo partly drawn) | nM | 4400 |

1. COc1ncncc1C(=O)N[C@@H]1C2CCC(C2=C(C)C)[C@@H]1C(=O)Nc1ccc(F)c(C(F)(F)F)c1 (stereo partly drawn)
2. COc1cc2c(cc1C(=O)N[C@@H]1C3CCC(/C3=C/C3CC3)[C@@H]1C(=O)Nc1ccc(F)c(C(F)(F)F)c1)CCN(CC(C)(C)O)C2 (stereo partly drawn)
3. COc1cnc(-c2cc([C@H](OC(=O)Nc3ccccc3)C(F)(F)F)ccc2F)cc1C(=O)N[C@@H]1C2CCC(/C2=C/C(F)(F)F)[C@@H]1C(=O)Nc1ccc(F)c(C(F)(F)F)c1 (stereo partly drawn)
In: Rank the items in ascending order with respect to EC50. Provide the ranking by listing each label in its place in the requested order.
Out: 3, 2, 1
(3: 63 nM, 2: 1600 nM, 1: 5000 nM)
